# System: MILI (PIWIL2) piRISC loaded with L1MC piRNA (26 nt);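 also: 1 nM active piRISC with 0.1 nM target library at 33 °C single turnover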
# protocolNotes: pre-steady-state target cleavage rate (min^-1); guide: L1MC piRNA 5'p-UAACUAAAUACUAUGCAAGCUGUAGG; higher = faster piRNA-guided slicing of the target
# testParameters: auxiliary factor: 500 nM mouse GTSF1
Classify by measured pre-steady-state target cleavage rate: True if it is equal to or exceeds 0.1, False if it is smaller.

Query: Say whether UCCUGGUACAGGUUGCAUAGUAUUUAGUUA shows pre-steady-state target cleavage rate of 0.1 or more.
Reply: True

---
Query: Say whether UCCUGGAACAGCUUGCAUAGUAUUUAGUCA shows pre-steady-state target cleavage rate of 0.1 or more.
Reply: True

Query: Say whether UCCUGCUACAGCUUGCAUACUAUUUAGUUA shows pre-steady-state target cleavage rate of 0.1 or more.
Reply: False

Query: Say whether UCCUGGAUGUCGUUACAUAGUAUUUAGUUA shows pre-steady-state target cleavage rate of 0.1 or more.
Reply: True

Query: Say whether UCCUGGAUCAGCUUGGAUAGUAAUUAGUUA shows pre-steady-state target cleavage rate of 0.1 or more.
Reply: True

Query: Say whether UCCUGGUACUCCUUGCAUAGUAUUUAGUUA shows pre-steady-state target cleavage rate of 0.1 or more.
Reply: True

Query: Say whether UCCUGCUCACAGCUUGCAUAGUAUUUAGUUA shows pre-steady-state target cleavage rate of 0.1 or more.
Reply: True

Query: Say whether UCCUGGUACAGCUUGGUUAGUAUUUAGAAA shows pre-steady-state target cleavage rate of 0.1 or more.
Reply: False

Query: Say whether UCCUGGUACAGCUUGCGUAGUAUUUAGUUA shows pre-steady-state target cleavage rate of 0.1 or more.
Reply: True

Query: Say whether UCCUGGUAACAGCUUGCAUAGUAUUUAGUUA shows pre-steady-state target cleavage rate of 0.1 or more.
Reply: True

Query: Say whether UCCUGGAUCAGCUUGCAUAGAAUUUACAAA shows pre-steady-state target cleavage rate of 0.1 or more.
Reply: False

Query: Say whether UCCUGGUACAGCUUGCAUAGUAUUAAGUUA shows pre-steady-state target cleavage rate of 0.1 or more.
Reply: True

Query: Say whether UCCUGGAUCCGCUUGCAUAGUAUUUAGUUA shows pre-steady-state target cleavage rate of 0.1 or more.
Reply: True

Query: Say whether UCCUGGAUGUCGUUGGAUACUAUUUAGUUA shows pre-steady-state target cleavage rate of 0.1 or more.
Reply: False

Query: Say whether UCCUGGAUCAGCUUGCAUAGAAUUUAGUAA shows pre-steady-state target cleavage rate of 0.1 or more.
Reply: False

Query: Say whether UCCUCCUACAGCUUCGUUAGUAUUUAGUAA shows pre-steady-state target cleavage rate of 0.1 or more.
Reply: True

Query: Say whether UCCUCCUACAGGUUGCAUAGUUUUUAGUUA shows pre-steady-state target cleavage rate of 0.1 or more.
Reply: False

Query: Say whether UCCUGGAUGUGCUUGGAUAGUAUAUAGUUA shows pre-steady-state target cleavage rate of 0.1 or more.
Reply: True

Query: Say whether UCCUGGAACAGCUUGCAUAGUAAAAAGUUA shows pre-steady-state target cleavage rate of 0.1 or more.
Reply: False

Query: Say whether UCCUCCUACAGCUUCAUAGUAUUUAGUUA shows pre-steady-state target cleavage rate of 0.1 or more.
Reply: True

Query: Say whether UCCUGGUAGUGCUUGCAUAGUAUUUUCAAA shows pre-steady-state target cleavage rate of 0.1 or more.
Reply: False

Query: Say whether UCCUGCUACAGCUUGCAUAGUUAAUAGUUA shows pre-steady-state target cleavage rate of 0.1 or more.
Reply: False

====

# System: MILI (PIWIL2) piRISC loaded with L1MC piRNA (26 nt);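 also: 1 nM active piRISC with 0.1 nM target library at 33 °C single turnover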
# protocolNotes: pre-steady-state target cleavage rate (min^-1); guide: L1MC piRNA 5'p-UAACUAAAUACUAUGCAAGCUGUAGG; higher = faster piRNA-guided slicing of the target
# testParameters: auxiliary factor: 500 nM mouse GTSF1
resultType: pre-steady-state target cleavage rate
Give bare numbers.

Query: Indicate its recorded pre-steady-state target cleavage rate; the sequence in question is UCCUGCUACAGCUUGCAUUGUAUUUACUUA
Reply: 0.12

Query: Indicate its recorded pre-steady-state target cleavage rate; the sequence in question is UCCUGGAUGUGCUACCAUAGUAUUUAGUUA
Reply: 0.0577

Query: Indicate its recorded pre-steady-state target cleavage rate; the sequence in question is UCCUGGAUGUCGAUGCUUAGUAUUUAGUAA
Reply: 0.0164

Query: Indicate its recorded pre-steady-state target cleavage rate; the sequence in question is UCCUGGAUGUCGUUGCAUAGUAUGUAGUUA
Reply: 0.015

Query: Indicate its recorded pre-steady-state target cleavage rate; the sequence in question is UCCUGGAUGUCGUUGCAUAGUGUUUAGUUA
Reply: 0.0461

# batch size: 2; output pre-steady-state target cleavage rate per entry
1. UCCUGGAUCAGCUUGCAUAGAUUUUAGUAA
2. UCCUGGUACAGCUUGCAUAGUAUUAUCUAA

Reply:
1: 0.0227; 2: 0.0327

====

# System: EfPiwi piRISC loaded with piRNA #1 (26 nt)
# protocolNotes: pre-steady-state target cleavage rate (min^-1); auxiliary factor: 500 nM Ephydatia muelleri Gtsf1; guide: piRNA #1 5'p-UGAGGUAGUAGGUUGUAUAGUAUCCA; higher = faster piRNA-guided slicing of the target
Assignment: determine reported pre-steady-state target cleavage rate for the given sequences.
One number for each entry.

Below: 6 sequences and their reported pre-steady-state target cleavage rate.
Query: State pre-steady-state target cleavage rate on EfPiwi piRISC loaded with piRNA #1 (26 nt). Entry: GGAGACGAUACUAUACAACGUAGUACCUCA
Reply: 0.00274

Query: State pre-steady-state target cleavage rate on EfPiwi piRISC loaded with piRNA #1 (26 nt). Entry: GGAGACGAUACUAUACAACCUAACUACCUCA
Reply: 0.0045

Query: State pre-steady-state target cleavage rate on EfPiwi piRISC loaded with piRNA #1 (26 nt). Entry: GGAGACCUUACUAUACAACCCUACUACCUCA
Reply: 0.00411

Query: State pre-steady-state target cleavage rate on EfPiwi piRISC loaded with piRNA #1 (26 nt). Entry: GGAGUGGAUACUAUACAACGUACUACCACA
Reply: 0.00371

Query: State pre-steady-state target cleavage rate on EfPiwi piRISC loaded with piRNA #1 (26 nt). Entry: GGAGACGAUACUAUACAAGCUACUUCCUCA
Reply: 0.00404

Query: State pre-steady-state target cleavage rate on EfPiwi piRISC loaded with piRNA #1 (26 nt). Entry: GGAGACGAUACUAUACAACCUACUACCCCA
Reply: 0.00536

---
Query: State pre-steady-state target cleavage rate on EfPiwi piRISC loaded with piRNA #1 (26 nt). Entry: GGAGUGGAUACUAUACAACAUACUACCUCA
Reply: 0.00987

====

# System: MILI (PIWIL2) piRISC loaded with L1MC piRNA (26 nt);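 also: 1 nM active piRISC with 0.1 nM target library at 33 °C single turnover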
# protocolNotes: pre-steady-state target cleavage rate (min^-1); guide: L1MC piRNA 5'p-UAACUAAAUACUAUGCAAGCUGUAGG; MIWI and MILI are mouse PIWI proteins and EfPiwi is from a freshwater sponge; tags in brackets are library labels; higher = faster piRNA-guided slicing of the target
# testParameters: auxiliary factor: 500 nM mouse GTSF1
Classify by measured pre-steady-state target cleavage rate: 1 (yes) if it is equal to or exceeds 0.08, 0 (no) if it is smaller.

Query: Say whether UCCUGGAACAGCUUGCAUAGUAUCUUAGUUA shows pre-steady-state target cleavage rate of 0.08 or more.
Reply: 1 (yes)

Query: Say whether UCCUGGAUGUCCUUGCAUAGUAUUUUCUUA shows pre-steady-state target cleavage rate of 0.08 or more.
Reply: 0 (no)

Query: Say whether UCCUGCUACAGCAAGCAUAGUAUUUACAAA shows pre-steady-state target cleavage rate of 0.08 or more.
Reply: 1 (yes)

Query: Say whether UCCUCCUACAGCUUGCAUAGUAUUUAGUAUA shows pre-steady-state target cleavage rate of 0.08 or more.
Reply: 1 (yes)

Query: Say whether UCCUGGAUGUCCUCUGCAUAGUAUUUAGUUA shows pre-steady-state target cleavage rate of 0.08 or more.
Reply: 0 (no)

Query: Say whether UCCUGGAACAGCUUGCAUAGUAAUUAGUUA shows pre-steady-state target cleavage rate of 0.08 or more.
Reply: 1 (yes)

Query: Say whether UCCUGGAUGUCGAUGCAUAGUAUAUUGUUA shows pre-steady-state target cleavage rate of 0.08 or more.
Reply: 0 (no)

Query: Say whether UCCUGGAUGAGCUACCAUAGUAUUUAGUAA shows pre-steady-state target cleavage rate of 0.08 or more.
Reply: 1 (yes)

Query: Say whether UCCUGGAUCAGCUUGCAUAGUAUUUACUAA shows pre-steady-state target cleavage rate of 0.08 or more.
Reply: 0 (no)

Query: Say whether UCCUGGUACAGCUUGCAUACUAUUUAGUAA shows pre-steady-state target cleavage rate of 0.08 or more.
Reply: 0 (no)

---
Query: Say whether UCCUGGAUGUGGUAGCAUAGUAUUUAGUUA shows pre-steady-state target cleavage rate of 0.08 or more.
Reply: 0 (no)

Cited source: the supplement of paper PMC10338343
